Where a name gives a salt, the structure may show the parent alone.
# collection of Ki values tested on rat histamine H3 receptors (Rattus norvegicus (Rat))
# Sequence (Q9QYN8 whole entry): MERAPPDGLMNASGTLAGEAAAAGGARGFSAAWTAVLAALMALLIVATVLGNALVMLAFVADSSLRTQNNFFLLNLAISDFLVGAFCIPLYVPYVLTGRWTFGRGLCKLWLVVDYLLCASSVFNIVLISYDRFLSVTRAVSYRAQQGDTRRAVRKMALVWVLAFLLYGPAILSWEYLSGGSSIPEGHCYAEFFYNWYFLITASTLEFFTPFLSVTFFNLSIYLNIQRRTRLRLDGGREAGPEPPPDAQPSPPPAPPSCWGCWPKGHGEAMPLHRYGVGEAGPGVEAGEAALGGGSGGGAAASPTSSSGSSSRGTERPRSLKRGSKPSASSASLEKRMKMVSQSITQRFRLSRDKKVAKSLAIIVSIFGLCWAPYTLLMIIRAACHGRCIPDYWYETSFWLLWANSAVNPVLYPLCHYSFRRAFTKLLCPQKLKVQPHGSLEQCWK

Worked set:
Exercise: Given the entry CC(=O)N1CCC(Oc2ccc(OCCCN3CCCCC3)cc2)CC1 [Example 3, hydrochloride salt] , what Ki was observed with rat histamine H3 receptors (Rattus norvegicus (Rat))?
Key: < 10 nM

Exercise: Given the entry C[C@@H]1CCCN1CCCOc1ccc(OC2CCN(C(=O)C3(C)CC3)CC2)cc1 [Example 13, hydrochloride salt] , what Ki was observed with rat histamine H3 receptors (Rattus norvegicus (Rat))?
Key: < 10 nM

Exercise: Given the entry CCOC(=O)N1CCC(Oc2ccc(OCCCN3CCCCC3)cc2)CC1 [Example 6, hydrochloride salt] , what Ki was observed with rat histamine H3 receptors (Rattus norvegicus (Rat))?
Key: 10 to 50 nM

Exercise: Given the entry O=C(C1CCC1)N1CCC(Oc2ccc(OCCCN3CCCCC3)cc2)CC1 [Example 4, hydrochloride salt] , what Ki was observed with rat histamine H3 receptors (Rattus norvegicus (Rat))?
Key: 10 to 50 nM

Exercise: Given the entry C[C@@H]1CCCN1CCCOc1ccc(OC2CCNCC2)cc1 [Example 10, dihydrochloride salt] , what Ki was observed with rat histamine H3 receptors (Rattus norvegicus (Rat))?
Key: < 10 nM

New cases:
Exercise: Given the entry c1cc(OC2CCNCC2)ccc1OCCCN1CCCCC1 [Example 2, dihydrochloride salt] , what Ki was observed with rat histamine H3 receptors (Rattus norvegicus (Rat))?
Key: 10 to 50 nM

Exercise: Given the entry CCN(C)C(=O)N1CCC(Oc2ccc(OCCCN3CCCCC3)cc2)CC1 [Example 8, hydrochloride salt] , what Ki was observed with rat histamine H3 receptors (Rattus norvegicus (Rat))?
Key: 10 to 50 nM

Exercise: Given the entry C[C@@H]1CCCN1CCCOc1ccc(OC2CCN(C(=O)C3CCC3)CC2)cc1 [Example 12, hydrochloride salt] , what Ki was observed with rat histamine H3 receptors (Rattus norvegicus (Rat))?
Key: < 10 nM

Exercise: Given the entry CC(=O)N1CCC(Oc2ccc(OCCCN3CCC[C@H]3C)cc2)CC1 [Example 11, hydrochloride salt] , what Ki was observed with rat histamine H3 receptors (Rattus norvegicus (Rat))?
Key: 10 to 50 nM

Exercise: Given the entry CCN(C)C(=O)N1CCC(Oc2ccc(OCCCN3CCC[C@H]3C)cc2)CC1 [Example 16, hydrochloride salt] , what Ki was observed with rat histamine H3 receptors (Rattus norvegicus (Rat))?
Key: < 10 nM

Exercise: Given the entry CCOC(=O)N1CCC(Oc2ccc(OCCCN3CCC[C@H]3C)cc2)CC1 [Example 14, hydrochloride salt] , what Ki was observed with rat histamine H3 receptors (Rattus norvegicus (Rat))?
Key: < 10 nM

Exercise: Given the entry CC1(C(=O)N2CCC(Oc3ccc(OCCCN4CCCCC4)cc3)CC2)CC1 [Example 5, hydrochloride salt] , what Ki was observed with rat histamine H3 receptors (Rattus norvegicus (Rat))?
Key: < 10 nM
